Values were extracted from PubChem BioAssay (NCI).

# Tested on: M14 melanoma
# assay_info: NCI tumour cell line growth inhibition, 48 h; in the data active means GI50 below about 0.43 µM; inactive means the rest
Where a SMILES comes first, the peptide text is derived from it. Bridges are numbered along the chain shown (N, C = ends). Roman numbers before positions name the chains, in order. [ ]: non-standard residue; d: D form. The star is where a group is joined. Heptadecanoyl = CCCCCCCCCCCCCCCCC(=O)*; Phg = N[CH](C(=O)O)c1ccccc1
Outcome (select one): label 1 (active), label 0 (inactive)

See these solved cases before continuing.
(Q) Can you look up the reported call for O=C(CN/C=C\C(=O)c1cc(Cl)ccc1Cl)c1ccccc1 for me?
(A) label 0

(Q) Then CSc1ccc2c(c1)C(=O)c1c-2n(CCCN=[N+]=[N-])c(=O)c2cc([N+](=O)[O-])ccc12 ?
(A) label 0

(Q) Then CCCCCCCCCCCCCCCCC(=O)N1CCCC1C(=O)NCC(=O)NC(C(=O)N1CCCC1C(=O)NC(CO)C(=O)NC(Cc1ccc(O)cc1)C(=O)NC(CCCCNC(=O)C1CCCN1C(=O)C(CCCCN)NC(=O)C(CCCCN)NC(=O)C(CCCCN)NC(=O)C(CCCNC(=N)N)NC(=O)C(CCCCN)NC(=O)C(N)C(C)C)C(=O)NC(CC(C)C)C(=O)NC(CCCNC(=N)N)C(=O)N1CCCC1C(=O)NCC(N)=O)c1ccccc1 (centres undefined) (I: Heptadecanoyl-PG[Phg]PSYKLRPG-NH2 / II: H-VKRKKKP; amide I:7-II:C; configuration not given here) ?
(A) label 0

(Q) Then O=C1[C@H](c2ccccc2)C2c3ccccc3CCN12 (some centres undefined) ?
(A) label 0

(Q) Then CN(C)CCOc1cccc(NC2=C(Cl)C(=O)C(Nc3cccc(OCCN(C)C)c3)=C(Cl)C2=O)c1 ?
(A) label 0

(Q) Then CCOC(=O)c1c2c(n3cccc(F)c13)C(=O)c1ncccc1C2=O ?
(A) label 1

Continuing:
(Q) Can you look up the reported call for O=C(Nc1cccc(-n2cc(-c3ccncc3)c(-c3ccc(O)c(Cl)c3)n2)c1)Nc1ccc(Cl)c(C(F)(F)F)c1 for me?
(A) label 0

(Q) Then N=c1c2c(=O)n3c(nc2nc2sc4ccc(Cl)cc4n12)-c1ccccc1Sc1ccccc1-3 ?
(A) label 0

(Q) Then COc1ccc(/C=C/C(=O)c2ccc(NC(=O)CSc3nnc(-c4cc(OC)c(OC)c(OC)c4)o3)cc2)cc1 ?
(A) label 0

* * *

Recorded GI50 by entry
# Tested on: SNB-75 CNS
# assay_info: NCI tumour cell line growth inhibition, 48 h
Where a SMILES comes first, the peptide text is derived from it. Bridges are numbered along the chain shown (N, C = ends). Roman numbers before positions name the chains, in order. [ ]: non-standard residue; d: D form. The star is where a group is joined. Heptadecanoyl = CCCCCCCCCCCCCCCCC(=O)*; Phg = N[CH](C(=O)O)c1ccccc1

# count of solved cases: 4
(Q) Record lookup: for SNB-75 CNS, what GI50 belongs to CC(=O)NC(C(=O)N1CCCC1C(=O)O)C(C)C (stereo not drawn) (Ac-Val-Pro-OH; configuration not given here) ?
(A) 0.032 µg/mL

(Q) Then Cn1cc(-c2nc(-c3cn(C)c4ncccc34)cs2)c2cc(F)ccc21 ?
(A) 1.27 µM

(Q) Then OCCCNC(=S)Nc1ccc(-c2nc3ccccc3s2)cc1 ?
(A) 18.8 µM

(Q) Then CCCCCCCCCCCCCCCCC(=O)N1CCCC1C(=O)NCC(=O)NC(C(=O)N1CCCC1C(=O)NC(CO)C(=O)NC(Cc1ccc(O)cc1)C(=O)NC(CCCCNC(=O)C1CCCN1C(=O)C(CCCCN)NC(=O)C(CCCCN)NC(=O)C(CCCCN)NC(=O)C(CCCNC(=N)N)NC(=O)C(CCCCN)NC(=O)C(N)C(C)C)C(=O)NC(CC(C)C)C(=O)NC(CCCNC(=N)N)C(=O)N1CCCC1C(=O)NCC(N)=O)c1ccccc1 (stereo not given) (I: Heptadecanoyl-PG[Phg]PSYKLRPG-NH2 / II: H-VKRKKKP; amide I:7-II:C; configuration not given here) ?
(A) 54.2 µM

# input for lookup
(Q) Record lookup: for SNB-75 CNS, what GI50 belongs to Cc1cc(Cl)ccc1Nc1nc(C(F)(F)F)ccc1C(=O)N/N=C/c1c(Cl)cccc1Cl ?
(A) 1.34 µM

* * *

# Tested on: HS 578T breast
# assay_info: NCI tumour cell line growth inhibition, 48 h
attribute_measured: TGI

# count of solved cases: 3
(Q) Record lookup: for HS 578T breast, what TGI belongs to O=C(NC1CCN(Cc2ccccc2)CC1)c1ccccc1I ?
(A) 50.2 µM

(Q) Then CCNC(=O)Cc1nc2c(=O)[nH]cnc2n1C1OC(CO)C(O)C1O (stereo unspecified) ?
(A) > 100 µM

(Q) Then O=C1[C@H](c2ccccc2)C2c3ccccc3CCN12 (stereo partly specified) ?
(A) > 100 µM

Continuing:
(Q) Record lookup: for HS 578T breast, what TGI belongs to CCOC(=O)c1nc2ccc(C(F)(F)F)cc2nc1Nc1ccc(OC)c(OC)c1 ?
(A) > 100 µM

(Q) Then COc1ccc(C2C3=C(CCCC3=O)N(c3ccccc3)C3=C2C(=O)CCC3)cc1 ?
(A) > 100 µM

(Q) Then Cc1cc(-c2ccc(Cl)cc2)c(C#N)c(=S)n1C1OC(CO)C(O)C(O)C1O (stereo unspecified) ?
(A) > 100 µM

* * *

Recorded TGI by entry
# System: SK-MEL-2 melanoma
# assay_info: NCI tumour cell line growth inhibition, 48 h
Where a SMILES comes first, the peptide text is derived from it. Bridges are numbered along the chain shown (N, C = ends). Roman numbers before positions name the chains, in order. [ ]: non-standard residue; d: D form. The star is where a group is joined. Heptadecanoyl = CCCCCCCCCCCCCCCCC(=O)*; Phg = N[CH](C(=O)O)c1ccccc1

(Q) Record lookup: for SK-MEL-2 melanoma, what TGI belongs to COC(=O)C1CCc2nnc(-c3cccnc3)n21 (stereo unspecified) ?
(A) > 100 µM

(Q) Then CC1=C/C(=C(/c2ccc(O)c(C)c2)c2ccccc2C(=O)O)C=CC1=O ?
(A) 38.5 µM

(Q) Then CC1(c2nc3cc(Cl)c(Cl)cc3[nH]2)CCC(C(=O)O)C(C)(C)O1 (stereo unspecified) ?
(A) > 100 µM

(Q) Then CCCCCCCCCCCCCCCCC(=O)N1CCCC1C(=O)NCC(=O)NC(C(=O)N1CCCC1C(=O)NC(CO)C(=O)NC(Cc1ccc(O)cc1)C(=O)NC(CCCCNC(=O)C1CCCN1C(=O)C(CCCCN)NC(=O)C(CCCCN)NC(=O)C(CCCCN)NC(=O)C(CCCNC(=N)N)NC(=O)C(CCCCN)NC(=O)C(N)C(C)C)C(=O)NC(CC(C)C)C(=O)NC(CCCNC(=N)N)C(=O)N1CCCC1C(=O)NCC(N)=O)c1ccccc1 (stereo unspecified) (I: Heptadecanoyl-PG[Phg]PSYKLRPG-NH2 / II: H-VKRKKKP; amide I:7-II:C; configuration not given here) ?
(A) > 100 µM

Continuing:
(Q) Record lookup: for SK-MEL-2 melanoma, what TGI belongs to O=C(Nc1cccc(-n2cc(-c3ccncc3)c(-c3ccc(O)c(Cl)c3)n2)c1)Nc1ccc(Cl)c(C(F)(F)F)c1 ?
(A) 4.28 µM

(Q) Then CC(C)C(/C=C/c1ccc(Cl)cc1)=N\NC(=S)NN ?
(A) 44.5 µM

* * *

# System: SR leukemia
# assay_info: NCI tumour cell line growth inhibition, 48 h; in the data active = GI50 below about 0.43 µM; inactive = the rest
Outcome (select one): active, inactive

(Q) Can you look up the reported call for CCN1CCN(Cc2ccc3cc(C(=O)Nc4cc(NC(=O)c5ccc6c(c5)OCCO6)ccc4F)ccc3n2)CC1 for me?
(A) active

(Q) Then O=C(Nc1cc(Cl)cc(Cl)c1)c1ccc(NC2=C(Cl)C(=O)N(Cc3ccccc3)C2=O)cc1 ?
(A) inactive

(Q) Then COc1ccc(OC)c2c3c(ncc12)-c1cc2c(cc1C3)OCO2 ?
(A) inactive

(Q) Then COc1ccc2cc(C(=O)/C=C/c3ccccc3OC)ccc2c1 ?
(A) active

(Q) Then COc1cc2c(cc1C)NC(=O)/C2=C/c1c(C)nc2sc(C)cn12 ?
(A) inactive

(Q) Then CCN(CC)CCCC(C)Nc1ccnc2cc(Cl)c(SCc3ccccc3)cc12 (stereo unspecified) ?
(A) active

Continuing:
(Q) Can you look up the reported call for CC1=C(C(=O)Nc2ccc(Cl)c(Cl)c2)C(c2cccc(O)c2)NC(=S)N1 (stereo unspecified) for me?
(A) inactive

(Q) Then N=c1c2c(=O)n3c(nc2nc2sc4ccc(Cl)cc4n12)-c1ccccc1Sc1ccccc1-3 ?
(A) inactive

(Q) Then O=C(Nc1cccc2ccccc12)c1cc2ccccc2cc1O ?
(A) inactive

(Q) Then COc1ccc(/C=C/C(=O)c2ccc(NC(=O)CSc3nnc(-c4cc(OC)c(OC)c(OC)c4)o3)cc2)cc1 ?
(A) inactive

(Q) Then O=C(Nc1ncc(Cc2ccc(Cl)cc2)s1)c1ccc2c(c1)OCCO2 ?
(A) active
